experiment: in vivo; details: mouse, ip, acute toxicity LD50, intraperitoneally administered, intraperitoneal, mice, two days after administration
Measured Attribute: LD50 at 48 h

Inquiry: Find the recorded LD50 at 48 h belonging to CCCCc1ccc(C(=O)Oc2c(C)c(C)c3c(c2C)CCC(C)(CCCC(C)CCCC(C)CCCC(C)C)O3)nc1 (racemic) [Example 1, dl-α-tocopheryl 5-butylpicolinate] and report it.
Reply text: > 4000 mg/kg

====

molecular target: dopamine β-hydroxylase (Bos taurus); assay: 50% dopamine β-hydroxylase inhibitory concentration; assay type: biochemical; conditions: Table 6
Sequence (P15101 whole entry): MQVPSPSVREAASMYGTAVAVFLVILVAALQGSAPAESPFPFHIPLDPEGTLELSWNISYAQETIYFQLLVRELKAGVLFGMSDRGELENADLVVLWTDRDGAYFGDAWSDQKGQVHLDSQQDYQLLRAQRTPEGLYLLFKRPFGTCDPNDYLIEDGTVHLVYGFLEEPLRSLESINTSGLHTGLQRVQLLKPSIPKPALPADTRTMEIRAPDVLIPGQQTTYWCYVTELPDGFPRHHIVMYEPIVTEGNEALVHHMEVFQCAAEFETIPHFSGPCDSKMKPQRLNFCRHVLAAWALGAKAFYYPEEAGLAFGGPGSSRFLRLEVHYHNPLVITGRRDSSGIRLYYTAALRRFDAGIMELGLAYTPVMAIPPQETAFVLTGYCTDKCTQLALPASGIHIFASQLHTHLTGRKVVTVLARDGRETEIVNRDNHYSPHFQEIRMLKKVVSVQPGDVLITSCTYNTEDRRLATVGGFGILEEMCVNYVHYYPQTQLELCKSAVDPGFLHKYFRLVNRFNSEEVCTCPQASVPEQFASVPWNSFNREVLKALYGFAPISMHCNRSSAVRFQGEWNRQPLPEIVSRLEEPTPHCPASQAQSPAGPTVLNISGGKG
Assign pIC50 to each entry below.
Here pIC50 is given on a logarithmic scale as minus log10 of the concentration in mol/L.

Inquiry: Item: CCCSc1ccc(C(=O)O)nc1 Test system: dopamine β-hydroxylase (Bos taurus) Read-out: pIC50 Value: ?
Reply text: 6.15

Inquiry: Give dopamine β-hydroxylase (Bos taurus) pIC50 for CCCCCCCCSc1ccc(C(=O)O)nc1
Reply text: 4.64

Inquiry: Provide the documented pIC50 with dopamine β-hydroxylase (Bos taurus) as the system for O=C(O)c1ccc(SCc2ccccc2)cn1
Reply text: 6.55

Inquiry: Give pIC50 (dopamine β-hydroxylase (Bos taurus)) of the following compound: CSc1ccc(C(=O)O)nc1
Reply text: 5.12

Inquiry: Test system dopamine β-hydroxylase (Bos taurus); read-out pIC50; what value for CC(C)CCSc1ccc(C(=O)O)nc1 ?
Reply text: 6.68

Inquiry: Param readout = pIC50; param system = dopamine β-hydroxylase (Bos taurus); param query = O=C(O)c1ccc(SCCCCl)cn1 ; response: value
Reply text: 6.26

Inquiry: Return pIC50 measured with dopamine β-hydroxylase (Bos taurus) given this compound: C=CCSc1ccc(C(=O)O)nc1
Reply text: 6.26

Sourced from patent US4443459A
